Give measured relative IC50 for each item. Keep answers brief.
Tested on: BT-474
Test: relative IC50 (midpoint of fitted logistic curve, plateau may be below 50% inhibition; CellTiter-Glo viability); higher = less potent
Conditions: 4-OH-tamoxifen in medium 1 µM; 72 h

Lookup: # input molecule: O=C1CCC(N2C(=O)c3ccccc3C2=O)C(=O)N1 (stereo not drawn) [Thalidomide] ; wanted: its relative IC50
Found: > 10 µM

Lookup: Also need `COc1nc(N)nc2c1ncn2[C@@H]1O[C@H](CO)[C@@H](O)[C@@H]1O` , thanks.
Found: > 10 µM

Lookup: What about this molecule? `CC[C@@H]1C(=O)OC[C@@H]1Cc1cncn1C`
Found: > 40 µM

* * *

Test system: ZR-75-1 Tam1
Experiment: relative IC50 (midpoint of fitted logistic curve, plateau may be below 50% inhibition; CellTiter-Glo viability); higher = less potent
Conditions: 4-OH-tamoxifen in medium 1 µM; 72 h
readout-name: relative IC50

Lookup: GET /values?readout=relative IC50&item= `C[C@H]1C[C@@H]2[C@H]([C@@H](O)C[C@@]3(C)[C@H]2CC[C@]3(O)C(=O)CO)[C@@]2(C)C=CC(=O)C=C12`
Found: > 10 µM

Lookup: Now this one: Cn1cc(C2=Nc3cc(NC(=O)C(N)C4CCCCC4)cc4c3C2=CNNC4=O)cn1 (stereo not drawn)
Found: > 10 µM

Lookup: Quick one: CC(C)C(=O)Nc1ccc([N+](=O)[O-])c(C(F)(F)F)c1 [Flutamide]
Found: > 10 µM

* * *

System: ZR-75-1 Tam1
Test: viability inhibition at highest dose (% inhibition); higher = more growth inhibition
Conditions: 4-OH-tamoxifen in medium 1 µM; 72 h
Mark each entry Condition met if its viability inhibition at highest dose sits below 90, and Condition not met for all others.

Lookup: Dear reviewer, please state whether CCc1cncnc1N1CCN(Cc2nc3ccc(C(F)(F)F)cc3[nH]2)CC1 (drug 10000 nM) has viability inhibition at highest dose strictly beneath 90.
Found: Condition met

Lookup: Okay, and CC(C)C[C@H](NC(=O)[C@H](Cc1ccccc1)NC(=O)c1cnccn1)B(O)O [Bortezomib] (drug 1000 nM) ?
Found: Condition met

Lookup: Further, for COc1c2occc2cc2ccc(=O)oc12 [Methoxsalen] (drug 10000 nM) ?
Found: Condition met

Lookup: What would you report for CN1CCN(CCOc2cc(OC3CCOCC3)c3c(Nc4c(Cl)ccc5c4OCO5)ncnc3c2)CC1 [Saracatinib] (drug 10000 nM) ?
Found: Condition met

Lookup: Moving on to the next compound: COc1ccc(-c2cc3c(C)nc(N)nc3n([C@H]3CC[C@H](OCCO)CC3)c2=O)cn1 (drug 10000 nM)
Found: Condition met

Lookup: For COCC[n+]1c2c(n(Cc3cnccn3)c1C)C(=O)c1ccccc1C2=O [YM155] (drug 10000 nM) then?
Found: Condition not met

* * *

Task for the reader: assign each of the following molecules its reported viability inhibition at highest dose.
Tested on: BT-474
Assay: viability inhibition at highest dose (% inhibition); higher = more growth inhibition
Details: 4-OH-tamoxifen in medium 0 µM; 72 h
Just the number, please, no unit after it.

Lookup: Bench note: what viability inhibition at highest dose did COC(=O)C[C@](O)(CCCC(C)(C)O)C(=O)O[C@@H]1C(OC)=C[C@]23CCCN2CCc2cc4c(cc2[C@H]13)OCO4 [Omacetaxine (Homoharringtonine)] (drug 10000 nM) show?
Found: 19.5

Lookup: And what about the molecule Cn1nnc2c(C(N)=O)ncn2c1=O [Temozolomide] (drug 10000 nM) ?
Found: -5.95

Lookup: And what about the molecule O=C(Nc1c[nH]nc1-c1nc2ccc(CN3CCOCC3)cc2[nH]1)NC1CC1 [AT9283] (drug 1000 nM) ?
Found: -19.7

Lookup: # repeat for Nc1nc2[nH]cnc2c(=S)[nH]1 [Thioguanine] (drug 10000 nM)
Found: 11.1

Lookup: Next up: c1cc(CN2CCCNCCNCCCNCC2)ccc1CN1CCCNCCNCCCNCC1 [Plerixafor] (drug 2500 nM)
Found: 4.13

Lookup: Query COc1cc(Nc2ncc(F)c(Nc3ccc4c(n3)NC(=O)C(C)(C)O4)n2)cc(OC)c1OC [Tamatinib (R406)] (drug 10000 nM) next
Found: -9.68

Lookup: // query: Cc1c(CN2CCN(C(=O)[C@H](C)O)CC2)sc2c(N3CCOCC3)nc(-c3cnc(N)nc3)nc12 [GDC-0980] (drug 10000 nM)
Found: 60.1

Lookup: Lookup NC(=O)c1cccc2cn(-c3ccc([C@@H]4CCCNC4)cc3)nc12 [MK-4827] (drug 10000 nM)
Found: -13.3

Lookup: What do you get for Cc1sc2c(c1C)C(c1ccc(Cl)cc1)=N[C@@H](CC(=O)OC(C)(C)C)c1nnc(C)n1-2 [(+)JQ1] (drug 10000 nM) ?
Found: 31.3

Lookup: Nc1nc(=O)c2c([nH]1)NCC(CNc1ccc(C(=O)N[C@@H](CCC(=O)O)C(=O)O)cc1)N2C=O (mixture of isomers) [Folinic acid] (drug 990000 nM) , same question.
Found: 1.3

* * *

Tested on: MCF-7 Tam1
Assay: viability inhibition at highest dose (% inhibition); higher = more growth inhibition
Conditions: 4-OH-tamoxifen in medium 1 µM; 72 h
readout-name: viability inhibition at highest dose

Lookup: Fill in the blank: the reported viability inhibition at highest dose of C[C@]1(O)C[C@@H](c2nc(-c3ccc4ccc(-c5ccccc5)nc4c3)c3c(N)nccn32)C1 [Linsitinib (OSI-906)] (drug 10000 nM) is ____.
Found: 38.1

Lookup: Same thing, different molecule: CNC(=O)c1cc(Oc2ccc(NC(=O)Nc3ccc(Cl)c(C(F)(F)F)c3)cc2)ccn1 [Sorafenib] (drug 1000 nM)
Found: -2.56

Lookup: And what about the molecule CC1(C)NC(=O)N(c2ccc([N+](=O)[O-])c(C(F)(F)F)c2)C1=O [Nilutamide] (drug 10000 nM) ?
Found: -1.08

Lookup: Also O=C(CCCCCCC(=O)Nc1ccccc1)NO [Vorinostat] (drug 10000 nM) ?
Found: 23.1

Lookup: For COc1cc(CCc2cc(NC(=O)c3ccc(N4CC(C)NC(C)C4)cc3)n[nH]2)cc(OC)c1 (stereo not drawn) [AZD4547] (drug 1000 nM) then?
Found: -1.84

Lookup: Thanks! And COc1cc2nccc(Oc3ccc(NC(=O)Nc4cc(C)on4)c(Cl)c3)c2cc1OC [Tivozanib (AV-951)] (drug 10000 nM) ?
Found: 13.2

Lookup: Do the same for COc1ccc(-c2ccc3c(N4CCOC[C@@H]4C)nc(N4CCOC[C@@H]4C)nc3n2)cc1CO [AZD8055] (drug 10000 nM) please
Found: 34.5

Lookup: Similarly, O=C(c1cc(Cc2n[nH]c(=O)c3ccccc23)ccc1F)N1CCN(C(=O)C2CC2)CC1 [Olaparib] (drug 10000 nM) ?
Found: -1.72

Lookup: Please do the same for Cn1cnc2c(F)c(Nc3ccc(Br)cc3Cl)c(C(=O)NOCCO)cc21 [Selumetinib (AZD6244)] (drug 10000 nM) as well.
Found: 11.7

Lookup: And the next one, O=S(=O)(c1cccc2cnccc12)N1CCCNCC1 [Fasudil (HA-1077)] (drug 50000 nM) ?
Found: 7.1

Lookup: Moving on to CO[C@@]12[C@H](COC(N)=O)C3=C(C(=O)C(C)=C(N)C3=O)N1C[C@@H]1N[C@@H]12 [Mitomycin C] (drug 10000 nM)
Found: -6.06

Lookup: Also check CC(=O)Nc1ccc(C(=O)Nc2ccccc2N)cc1 [Tacedinaline (CI-994)] (drug 1000 nM)
Found: 0.399

Lookup: Then what about the molecule Cc1sc2c(c1C)C(c1ccc(Cl)cc1)=N[C@@H](CC(=O)OC(C)(C)C)c1nnc(C)n1-2 [(+)JQ1] (drug 10000 nM) ?
Found: 15.2

Lookup: Note, next up: O=C(/C=C/c1cccc(S(=O)(=O)Nc2ccccc2)c1)NO [Belinostat (PXD101)] (drug 10000 nM)
Found: 22.8

Lookup: Further, for Cc1cn(-c2cc(NC(=O)c3ccc(C)c(Nc4nccc(-c5cccnc5)n4)c3)cc(C(F)(F)F)c2)cn1 [Nilotinib] (drug 10000 nM) ?
Found: -8.69

Lookup: How about this molecule: Nc1nc2[nH]cc(CCc3ccc(C(=O)N[C@@H](CCC(=O)O)C(=O)O)cc3)c2c(=O)[nH]1 [Pemetrexed] (drug 10000 nM)
Found: -1.81

Lookup: Now the same for N#CC[C@H](C1CCCC1)n1cc(-c2ncnc3[nH]ccc23)cn1 (drug 10000 nM)
Found: -11.4

Lookup: Thanks! And CO[C@H]1/C=C\C=C(/C)C(=O)NC2=CC(=O)C(NCCN(C)C)=C(C[C@@H](C)C[C@H](OC)[C@H](O)[C@@H](C)/C=C(\C)[C@@H]1OC(N)=O)C2=O [Alvespimycin (17-DMAG)] (drug 1000 nM) ?
Found: 30.2

Lookup: Continue with CC[C@@H]1C(=O)N(C)c2cnc(Nc3ccc(C(=O)N[C@H]4CC[C@H](N5CCN(CC6CC6)CC5)CC4)cc3OC)nc2N1C(C)C [Volasertib (BI 6727)] (drug 1000 nM)
Found: 0.498

Lookup: CO[C@H]1C[C@@H]2CC[C@@H](C)[C@@](O)(O2)C(=O)C(=O)N2CCCC[C@H]2C(=O)O[C@H]([C@H](C)C[C@@H]2CC[C@@H](OC(=O)C(C)(CO)CO)[C@H](OC)C2)CC(=O)[C@H](C)/C=C(\C)[C@@H](O)[C@@H](OC)C(=O)[C@H](C)C[C@H](C)/C=C/C=C/C=C/1C [Temsirolimus] (drug 100 nM) ?
Found: 10.6

Lookup: Another: COc1cccc2c1C(=O)c1c(O)c3c(c(O)c1C2=O)C[C@@](O)(C(C)=O)C[C@@H]3O[C@H]1C[C@H](N)[C@H](O)[C@H](C)O1 [Daunorubicin] (drug 1000 nM)
Found: 32.2

Lookup: Then what about the molecule NCCCNCCSP(=O)(O)O [Amifostine] (drug 10000 nM) ?
Found: -11.7

Lookup: Now the molecule N#CCNC(=O)c1ccc(-c2ccnc(Nc3ccc(N4CCOCC4)cc3)n2)cc1 [Momelotinib (CYT-387)] (drug 10000 nM)
Found: 43.1
